test system: Abhydrolase domain-containing protein 11 (ABHD11), Mus musculus; assay: recombinant ABHD11 inhibition, late-stage follow-up, selectivity assay for DAGLb inhibitor project, biochemical, competitive gel ABPP, mouse, set 1 (AID 602301); details: Recombinant ABHD11 in HEK293T proteome, gel ABPP FP-Rh; at 10 µM; hits give high values
Rule: inhibition under 30% gives false, otherwise true.

> print(dat)
                                   compound                                 tested.on  class.assignment
1  O=C(N1CCCCC1Cc1ccccc1)n1cc(-c2cccc(-c3ccccc3)c2)nn1 (stereo unspecified)  Abhydrolase domain-containing protein 11 (ABHD11), Mus musculus              true
2  O=C(c1ccc(-c2ccc(-c3cn(C(=O)N4CCCCC4Cc4ccccc4)nn3)cc2)cc1)N1CCCCC1 (stereo unspecified)  Abhydrolase domain-containing protein 11 (ABHD11), Mus musculus             false
3  O=C(N1CCCCC1Cc1ccccc1)n1cc(-c2ccc(-c3ccccc3C(F)(F)F)cc2)nn1 (stereo unspecified)  Abhydrolase domain-containing protein 11 (ABHD11), Mus musculus             false
4  O=C(N1CCCCC1Cc1ccccc1)n1cc(-c2ccccc2-c2ccccc2)nn1 (stereo unspecified)  Abhydrolase domain-containing protein 11 (ABHD11), Mus musculus              true

Shifting focus to the compound that follows.
In: Check if inhibition >= 30% (inclusive). Item: CC(C)CN(CCc1ccccc1)C(=O)n1cc(-c2ccc(OC(F)(F)F)cc2)nn1
Out: false
